This listing pairs compounds with measured inhibition at 100 µM.
target: human Fatty Acid Synthase (Homo sapiens, UniProt P49327); construct: made in house; experiment: Human FAS enzyme assay (decrease in NADPH fluorescence); type: biochemical; settings: % inhibition at a concentration of 100 μmolar
Sequence (P49327 whole entry): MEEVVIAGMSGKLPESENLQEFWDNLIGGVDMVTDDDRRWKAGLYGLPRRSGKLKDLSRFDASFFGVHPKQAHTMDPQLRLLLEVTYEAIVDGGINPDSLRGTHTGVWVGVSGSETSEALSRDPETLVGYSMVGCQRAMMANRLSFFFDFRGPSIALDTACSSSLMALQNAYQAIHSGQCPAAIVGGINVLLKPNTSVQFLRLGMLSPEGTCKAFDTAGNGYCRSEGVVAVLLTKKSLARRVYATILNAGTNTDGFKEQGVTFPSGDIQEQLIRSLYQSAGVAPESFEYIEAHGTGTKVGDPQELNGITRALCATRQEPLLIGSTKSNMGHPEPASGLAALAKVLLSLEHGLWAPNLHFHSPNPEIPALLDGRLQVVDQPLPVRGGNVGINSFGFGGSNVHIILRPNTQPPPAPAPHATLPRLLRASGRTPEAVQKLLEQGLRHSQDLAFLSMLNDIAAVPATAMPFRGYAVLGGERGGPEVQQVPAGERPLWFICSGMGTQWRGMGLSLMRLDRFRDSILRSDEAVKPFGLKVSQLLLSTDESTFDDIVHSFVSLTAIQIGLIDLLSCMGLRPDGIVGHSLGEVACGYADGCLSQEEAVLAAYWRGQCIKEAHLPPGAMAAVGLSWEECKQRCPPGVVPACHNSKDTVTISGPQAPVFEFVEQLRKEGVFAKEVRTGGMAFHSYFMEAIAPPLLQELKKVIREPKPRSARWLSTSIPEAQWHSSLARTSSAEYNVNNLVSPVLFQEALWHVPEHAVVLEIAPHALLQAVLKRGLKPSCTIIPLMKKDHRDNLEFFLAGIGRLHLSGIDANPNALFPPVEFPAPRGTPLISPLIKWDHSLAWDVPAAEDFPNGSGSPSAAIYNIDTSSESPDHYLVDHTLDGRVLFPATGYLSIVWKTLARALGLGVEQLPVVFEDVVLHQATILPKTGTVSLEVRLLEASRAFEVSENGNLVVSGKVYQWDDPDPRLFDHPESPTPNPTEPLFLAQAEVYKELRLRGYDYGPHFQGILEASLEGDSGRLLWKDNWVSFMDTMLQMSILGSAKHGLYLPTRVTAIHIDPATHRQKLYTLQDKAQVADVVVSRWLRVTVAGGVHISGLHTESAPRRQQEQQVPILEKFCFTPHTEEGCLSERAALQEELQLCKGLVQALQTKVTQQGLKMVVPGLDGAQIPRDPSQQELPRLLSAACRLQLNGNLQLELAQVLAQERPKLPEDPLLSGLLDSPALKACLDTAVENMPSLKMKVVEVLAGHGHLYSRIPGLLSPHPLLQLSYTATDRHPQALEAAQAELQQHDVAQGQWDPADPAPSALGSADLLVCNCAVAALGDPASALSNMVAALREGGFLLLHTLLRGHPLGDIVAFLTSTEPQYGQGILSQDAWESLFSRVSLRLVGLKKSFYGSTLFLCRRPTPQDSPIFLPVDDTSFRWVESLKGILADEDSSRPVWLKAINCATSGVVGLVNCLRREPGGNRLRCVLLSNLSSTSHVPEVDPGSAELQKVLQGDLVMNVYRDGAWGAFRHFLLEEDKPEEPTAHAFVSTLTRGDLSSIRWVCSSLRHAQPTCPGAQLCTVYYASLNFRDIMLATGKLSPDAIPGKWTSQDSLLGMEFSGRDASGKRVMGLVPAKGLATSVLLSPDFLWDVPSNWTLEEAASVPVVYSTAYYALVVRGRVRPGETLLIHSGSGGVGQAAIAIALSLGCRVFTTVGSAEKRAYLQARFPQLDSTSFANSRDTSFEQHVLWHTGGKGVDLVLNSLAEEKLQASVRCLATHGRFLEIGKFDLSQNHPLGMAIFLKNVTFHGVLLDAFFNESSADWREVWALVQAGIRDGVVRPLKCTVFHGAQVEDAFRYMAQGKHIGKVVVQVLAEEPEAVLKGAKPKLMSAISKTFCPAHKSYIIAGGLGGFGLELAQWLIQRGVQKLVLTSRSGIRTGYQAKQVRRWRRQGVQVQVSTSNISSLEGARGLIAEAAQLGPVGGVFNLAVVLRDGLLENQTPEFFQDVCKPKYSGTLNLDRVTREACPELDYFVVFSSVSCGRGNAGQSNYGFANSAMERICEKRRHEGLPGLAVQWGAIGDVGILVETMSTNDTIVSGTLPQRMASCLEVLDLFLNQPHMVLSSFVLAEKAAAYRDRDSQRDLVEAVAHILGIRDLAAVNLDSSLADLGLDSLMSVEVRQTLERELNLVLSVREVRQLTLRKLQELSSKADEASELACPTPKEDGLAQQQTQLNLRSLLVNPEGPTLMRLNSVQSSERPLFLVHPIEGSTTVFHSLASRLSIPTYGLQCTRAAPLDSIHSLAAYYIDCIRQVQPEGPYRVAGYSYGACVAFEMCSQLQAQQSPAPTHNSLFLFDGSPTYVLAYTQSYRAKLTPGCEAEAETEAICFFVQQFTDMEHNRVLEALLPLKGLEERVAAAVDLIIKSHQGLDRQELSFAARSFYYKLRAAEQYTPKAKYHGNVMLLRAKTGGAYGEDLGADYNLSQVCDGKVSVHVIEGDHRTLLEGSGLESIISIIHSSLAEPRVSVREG
experimentalEndpoint: inhibition at 100 µM (%)

>>> df
                                 chemsmiles  experimentalendpoint  observedresult
0  Cc1ccc(C(=O)N2CCC(c3ccc(C#N)cc3)CC2)cc1NC(=O)NCCCN1CCOCC1  inhibition at 100 µM            89.7
1  Cc1ccc(C(=O)N2CCC(c3ccc(C#N)cc3)CC2)cc1NC(=O)NCCCS(C)(=O)=O  inhibition at 100 µM            92.8
2  Cc1ccc(C(=O)N2CCC(c3ccc(C#N)cc3)CC2)cc1NC(=O)NC1(C)CC1  inhibition at 100 µM            78.6
3  Cc1ccc(C(=O)N2CCC(c3ccc(C#N)cc3)CC2)cc1NC(=O)NC1COC1  inhibition at 100 µM            95.1

====

This listing pairs molecules with measured inhibition at 100 µM.
target: human Fatty Acid Synthase (Homo sapiens, UniProt P49327); construct: made in house; experiment: Human FAS enzyme assay (decrease in NADPH fluorescence); format: biochemical; settings: % inhibition at a concentration of 100 μmolar
experimentalEndpoint: inhibition at 100 µM

In [3]: df
Out[3]:
                                   molecule  experimentalendpoint  observedresult
0  Cc1ccc(C(=O)N2CCC(c3ccc(C#N)cc3)CC2)cc1NC(=O)N(C)C1CCN(C)CC1 [Example 393]  inhibition at 100 µM           65.8%
1  Cc1ccc(NC(=O)NC2CC2)cc1C(=O)N1CCC(c2ccc(C#N)cc2)CC1 [Example 415]  inhibition at 100 µM           78.2%
2  Cc1ccc(C(=O)N2CCC(c3ccc(C#N)cc3)CC2)cc1NC(=O)NC1CCCN(C)C1 (racemic) [Example 255]  inhibition at 100 µM            102%
3  COc1ccc(C(=O)N2CCC(c3ccc(C#N)cc3)CC2)cc1NC(=O)NCc1ccccc1 [Example 9]  inhibition at 100 µM           70.4%

====

molecular target: human Fatty Acid Synthase (Homo sapiens, UniProt P49327); construct: made in house; assay: Human FAS enzyme assay (decrease in NADPH fluorescence); format: biochemical; settings: % inhibition at a concentration of 100 μmolar
experimentalEndpoint: inhibition at 100 µM (%)

                                 chemsmiles  experimentalendpoint  observedresult
0  Cc1ccc(C(=O)N2CCC(c3ccc(C#N)cc3)CC2)cc1NC(=O)NCCNc1nc(N)nc(C)c1C  inhibition at 100 µM            89.6
1  Cc1ccc(C(=O)N2CCC(c3ccc(C#N)cc3)CC2)cc1NC(=O)NCCN(C)S(C)(=O)=O  inhibition at 100 µM              86
2  Cc1ccc(C(=O)N2CCC(c3ccc(C#N)cc3)CC2)cc1NC(=O)NCCCNC(=O)N1CCOCC1  inhibition at 100 µM            86.5
3  Cc1ccc(C(=O)N2CCC(c3ccc(C#N)cc3)CC2)cc1NC(=O)NCc1ccc(S(C)(=O)=O)cc1  inhibition at 100 µM            99.9

====

target: human Fatty Acid Synthase (Homo sapiens, UniProt P49327); construct: made in house; test: Human FAS enzyme assay (decrease in NADPH fluorescence); type: biochemical; settings: % inhibition at a concentration of 100 μmolar
experimentalEndpoint: inhibition at 100 µM

                                    compound  observedresult
 0  Cc1ccc(C(=O)N2CCC(c3ccc(C#N)cc3)CC2)cc1NC(=O)NCC1CCOCC1 [Example 17]           90.1%
 1  CCOCC1CCCN1C(=O)Nc1cc(C(=O)N2CCC(c3ccc(C#N)cc3)CC2)ccc1C (centres unmarked) [Example 399]           73.3%
 2  Cc1ccc(C(=O)N2CCC(c3ccc(C#N)cc3)CC2)cc1NC(=O)NC1CCC(N(C)C)CC1 (centres unmarked) [Example 256]           98.7%
 3  Cc1ccc(C(=O)N2CCC(c3ccc(Cl)cc3)CC2)cc1NC(=O)NCc1ccccn1 [Example 355]           82.2%
 4  Cc1ccc(C(=O)N2CCC(c3ccc(C#N)cc3)CC2)cc1NC(=O)NCc1cc[nH]n1 [Example 289]           91.2%
 5  Cc1ccc(NC(=O)NC2CCCC2)cc1C(=O)N1CCC(c2ccc(C#N)cc2)CC1 [Example 21]           78.8%
 6  Cc1ccc(C(=O)N2CCC(c3ccc(C#N)cc3)CC2)cc1NC(=O)NCCN1CCC(F)(F)C1 [Example 254]            104%
 7  Cc1ccc(C(=O)N2CCC(c3ccc(C#N)cc3)CC2)cc1NC(=O)NCc1ncco1 [Example 269]           89.9%
 8  C#CC(C)(C)NC(=O)Nc1cc(C(=O)N2CCC(c3ccc(C#N)cc3)CC2)ccc1C [Example 384]           97.6%
 9  CCS(=O)(=O)NCCNC(=O)Nc1cc(C(=O)N2CCC(c3ccc(C#N)cc3)CC2)ccc1C [Example 110]           94.2%
10  Cc1ccc(C(=O)N2CCC(c3ccc(C#N)cc3)CC2)cc1NC(=O)N[C@@H]1CCN(S(C)(=O)=O)C1 [Example 218]           84.4%
11  Cc1ccc(C(=O)N2CCC(c3ccc(C#N)cc3)CC2)cc1NC(=O)NC1CCCCNC1=O (centres unmarked) [Example 133]           81.2%
12  Cc1ccc(NC(=O)N(C)Cc2ccccc2)cc1C(=O)N1CCC(c2ccc(C#N)cc2)CC1 [Example 24]           78.1%
13  Cc1ccc(C(=O)N2CCC(c3ccc(C#N)cc3)CC2)cc1NC(=O)NC1CCN(C)CC1 [Example 148]           79.5%
14  CC(C)NC(=O)Nc1cc(C(=O)N2CCC(c3ccc(C#N)cc3)CC2)ccc1F [Example 11]           68.4%
15  Cc1ccc(NC(=O)NCCc2ccccc2)cc1C(=O)N1CCC(c2ccc(C#N)cc2)CC1 [Example 26]           82.9%
16  Cc1ccc(C(=O)N2CCC(c3ccc(C#N)cc3)CC2)cc1NC(=O)NC1CCC(O)CC1 (centres unmarked) [Example 107]           97.7%
17  Cc1ccc(C(=O)N2CCC(c3ccc(C#N)cc3)CC2)cc1NC(=O)NCCNC(=O)CC(=O)O [Example 104A]             79%
18  CCCN1CCC(NC(=O)Nc2cc(C(=O)N3CCC(c4ccc(C#N)cc4)CC3)ccc2C)CC1 [Example 79]           95.4%
19  Cc1ccc(C(=O)N2CCC(c3ccc(C#N)cc3)CC2)cc1NC(=O)NC(C)(C)C [Example 31]           83.3%
20  Cc1ccc(C(=O)N2CCC(O)(c3ccc(C#N)cc3)CC2)cc1NC(=O)NC(C)C [Example 50]           81.2%
21  COCCNC(=O)CCNC(=O)Nc1cc(C(=O)N2CCC(c3ccc(C#N)cc3)CC2)ccc1C [Example 128]           87.5%
22  Cc1ccc(NC(=O)NCc2ccncc2)cc1C(=O)N1CCC(c2ccc(C#N)cc2)CC1 [Example 379]           73.3%
23  Cc1ccc(C(=O)N2CCC(c3ccc(C#N)cc3)CC2)cc1NC(=O)NCc1ccccc1F [Example 34]           86.5%
24  Cc1ccc(C(=O)N2CCC(c3ccc(C#N)cc3)CC2)cc1NC(=O)NCCC(=O)N(C)C [Example 130]           90.5%
25  CC(C)=CCNC(=O)Nc1cc(C(=O)N2CCC(c3ccc(C#N)cc3)CC2)ccc1C [Example 96]            103%
26  Cc1ccc(C(=O)N2CCC(c3ccc(C#N)cc3)CC2)cc1NC(=O)NC(C)(C)CN [Example 260]           77.4%
27  COC(=O)CNC(=O)Nc1cc(C(=O)N2CCC(c3ccc(C#N)cc3)CC2)ccc1C [Example 72]           80.1%
28  Cc1ccc(C(=O)N2CCC(c3ccc(C#N)cc3)CC2)cc1NC(=O)NCCNC(=O)c1cccs1 [Example 117]           84.5%
29  CCS(=O)(=O)NC(C)(C)CNC(=O)Nc1cc(C(=O)N2CCC(c3ccc(C#N)cc3)CC2)ccc1C [Example 204]             91%
30  CC(=O)NCCN(C)C(=O)Nc1cc(C(=O)N2CCC(c3ccc(C#N)cc3)CC2)ccc1C [Example 401]           65.7%
31  Cc1ccc(C(=O)N2CCC(c3ccc(C#N)cc3)CC2)cc1NC(=O)NCCNC(=O)c1cnoc1C [Example 119]           89.2%
